Tested on: Influenza A virus (A/Wyoming/03/2003(H3N2))
Measurement description: Binding affinity to Influenza A virus (A/Wyoming/03/2003(H3N2)) H3 hemagglutinin after 2 hrs by avidin-biotin-peroxidase complex method
The source made the active and inactive calls. The rule behind the calls is not given here. Peptide text beside a SMILES is read from it. * marks the point of attachment. Biotinyl(3aR,4S,6aS) = O=C1N[C@H]2[C@H](CCCCC(=O)*)SC[C@H]2N1

Molecule: CC(C)C[C@H](NC(=O)[C@H](CC(=O)O)NC(=O)[C@H](CC(C)C)NC(=O)[C@@H]1CCCN1C(=O)[C@H](CCCNC(=N)N)NC(=O)[C@@H](NC(=O)[C@@H](N)CC(C)C)C(C)C)C(=O)N[C@@H](CCCCNC(=O)CCCC[C@@H]1SC[C@H]2NC(=O)N[C@@H]12)C(N)=O (H-LVRPLDLK(Biotinyl(3aR,4S,6aS))-NH2)
Activity: Active

Molecule: CC(C)C[C@H](NC(=O)[C@H](C)NC(=O)[C@H](CC(C)C)NC(=O)[C@@H]1CCCN1C(=O)[C@H](Cc1cnc[nH]1)NC(=O)[C@@H](NC(=O)[C@@H](N)CC(C)C)C(C)C)C(=O)N[C@@H](CCCCNC(=O)CCCC[C@@H]1SC[C@H]2NC(=O)N[C@@H]12)C(N)=O (H-LVHPLALK(Biotinyl(3aR,4S,6aS))-NH2)
Activity: Active

Molecule: CC(C)C[C@H](NC(=O)[C@H](C)NC(=O)[C@H](CC(C)C)NC(=O)[C@@H]1CCCN1C(=O)[C@H](CCCNC(=N)N)NC(=O)[C@H](CCC(N)=O)NC(=O)[C@@H](N)CC(C)C)C(=O)N[C@@H](CCCCNC(=O)CCCC[C@@H]1SC[C@H]2NC(=O)N[C@@H]12)C(N)=O (H-LQRPLALK(Biotinyl(3aR,4S,6aS))-NH2)
Activity: Active
